MEASUREMENT TARGET: human somatostatin receptor subtype 2 (Homo sapiens, UniProt P30874)
Construct: expressed in transfected cells
Sequence (P30874 whole entry): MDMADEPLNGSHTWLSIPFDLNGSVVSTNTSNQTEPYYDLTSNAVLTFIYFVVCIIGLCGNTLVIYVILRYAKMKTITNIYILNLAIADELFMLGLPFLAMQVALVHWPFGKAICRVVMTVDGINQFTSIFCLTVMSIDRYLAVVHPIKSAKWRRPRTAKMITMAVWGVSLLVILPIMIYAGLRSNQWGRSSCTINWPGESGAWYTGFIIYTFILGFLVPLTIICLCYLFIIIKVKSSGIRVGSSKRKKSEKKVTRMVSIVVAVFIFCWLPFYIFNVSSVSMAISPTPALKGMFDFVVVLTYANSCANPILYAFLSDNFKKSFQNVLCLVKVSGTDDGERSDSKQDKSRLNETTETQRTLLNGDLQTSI
EXPERIMENTAL DETAILS: Functional cAMP assay for SSTR2 agonists (HTRF) in CHO-K1 cells
Format: cell-based
RUN CONDITIONS: CHO-K1 cells stably expressing human SST2, 20 min; read-out: hSST2 cAMP Avg EC50
Starred links: 1 amine or outer side, 2 acyl side, 3 side chain; linkers in the order of their positions; H or OH if unused. Non-standard residues stand in square brackets, D forms with d. Residues, ends and D or L forms follow the SMILES beside them. *: point of attachment. X3 = Cc1cc(F)cc(-c2cnc(NCCN*)c(-c3nc4ccc(Cl)cc4[nH]3)c2N2CCC(N)CC2)c1; Dolaproine = CO[C@@H]([C@@H]1CCCN1)[C@@H](C)C(=O)O; Dil = CC[C@H](C)[C@H](NC)[C@@H](CC(=O)O)OC; PABC = O=C(OCc1ccc(N[*:1])cc1)[*:2]; Glutaryl = O=C(CCCC(=O)[*:2])[*:1]; X2 = C[C@@H](N*)[C@@H](O)c1ccccc1; Cit = NC(=O)NCCC[C@H](N)C(=O)O; NMeV = CN[C@H](C(=O)O)C(C)C; Sar = CNCC(=O)O
Recorded EC50 values for a group of molecules are listed next.
Your answer is read as pM, so omit the unit and give the number.

Previously resolved entries follow.
Please fill in: EC50 reported for "Cc1cc(F)cc(-c2cnc(NCCOCCOCCOCCOCCNC(=O)CN3CCN(CC(=O)O)CCN(CC(=O)O)CCN(CC(=O)O)CC3)c(-c3ccc(C(F)(F)F)cc3)c2N2CCC(N)CC2)c1" = 660

The recorded EC50 for CC[C@H](C)[C@@H]([C@@H](CC(=O)N1CCC[C@H]1[C@H](OC)[C@@H](C)C(=O)N[C@H](C)[C@@H](O)c1ccccc1)OC)N(C)C(=O)[C@@H](NC(=O)[C@H](C(C)C)N(C)C(=O)OCc1ccc(NC(=O)[C@H](CCCNC(N)=O)NC(=O)[C@@H](NC(=O)CCCC(=O)N(C)CC(=O)NCCNc2ncc(-c3cc(C)cc(F)c3)c(N3CCC(N)CC3)c2-c2nc3ccc(Cl)cc3[nH]2)C(C)C)cc1)C(C)C [Compound 95] ({X3-Sar-Glutaryl}-V[Cit][PABC][NMeV]V[Dil][Dolaproine]-X2) is 260

Form: molecule = CC[C@H](C)[C@@H]([C@@H](CC(=O)N1CCC[C@H]1[C@H](OC)[C@@H](C)C(=O)N[C@H](C)[C@@H](O)c1ccccc1)OC)N(C)C(=O)[C@@H](NC(=O)[C@H](C(C)C)N(C)C(=O)OCc1ccc(NC(=O)[C@H](CCCNC(N)=O)NC(=O)[C@@H](NC(=O)CCCC(=O)N(C)CC(=O)N(C)CC(=O)N(C)CC(=O)NCCNc2ncc(-c3cc(C)cc(F)c3)c(N3CCC(N)CC3)c2-c2nc3ccc(Cl)cc3[nH]2)C(C)C)cc1)C(C)C [Compound 96] ({X3-Sar-Sar-Sar-Glutaryl}-V[Cit][PABC][NMeV]V[Dil][Dolaproine]-X2) ; EC50 = 470

The recorded EC50 for entry "CC[C@H](C)[C@@H]([C@@H](CC(=O)N1CCC[C@H]1[C@H](OC)[C@@H](C)C(=O)N[C@H](C)[C@@H](O)c1ccccc1)OC)N(C)C(=O)[C@@H](NC(=O)[C@H](C(C)C)N(C)C(=O)OCc1ccc(NC(=O)[C@H](CCCNC(N)=O)NC(=O)[C@@H](NC(=O)[C@H](CCC(N)=O)NC(=O)CCOCCOCCOCCOCCC(=O)NCCNc2ncc(-c3cc(C)cc(F)c3)c(N3CCC(N)CC3)c2-c2nc3ccc(Cl)cc3[nH]2)C(C)C)cc1C(=O)NC)C(C)C" equals 100

***
The recorded EC50 for "Cc1cc(F)cc(-c2cnc(NCCOCCOCCOCCOCCNC(=O)CN3CCN4CCN5CCN(CC3)CC(=O)[O][In]([O]C(=O)C4)[O]C(=O)C5)c(-c3ccc(C(F)(F)F)cc3)c2N2CCC(N)CC2)c1" is 1800

The molecule listed as "CC[C@H](C)[C@@H]([C@@H](CC(=O)N1CCC[C@H]1[C@H](OC)[C@@H](C)C(=O)N[C@H](C)[C@@H](O)c1ccccc1)OC)N(C)C(=O)[C@@H](NC(=O)[C@H](C(C)C)N(C)C(=O)OCc1ccc(NC(=O)[C@H](CCCNC(N)=O)NC(=O)[C@@H](NC(=O)CCOCCOCCOCCOCCC(=O)NCCNc2ncc(-c3cc(C)cc(F)c3)c(N3CCC(N)CC3)c2-c2nc3ccc(Cl)cc3[nH]2)C(C)C)cc1C(N)=O)C(C)C" has a reported EC50 of 130
